src = PubChem BioAssay (NCI)

Quick reference: growth of the listed items.
Test system: 786-0 renal
Assay: NCI-60 one-dose screen, 48 h (100 = growth as untreated, 0 = no growth, -100 = all killed)
Conditions: 10 µM unless noted
This is part of a sample that, as a whole, favours compounds with a hit. Of some 83,000 tested, about 20% had one in any assay. The source made the active and inactive calls. How the source made its calls: active means growth percent below 10; inactive means the rest.

Please look up its growth: CSc1nc(-c2cccs2)c2c(N)[nH]nc2n1
91.4% (inactive)

###

Test system: BT-549 breast
Experiment: NCI-60 one-dose screen, 48 h (100 = growth as untreated, 0 = no growth, -100 = all killed)
Settings: 10 µM unless noted
The panel holds about 83,000 compounds, 20% with a hit somewhere; the sample as a whole holds those more often.
Quick rule for you: growth under 70% gets true, anything else gets false.

Example cases with answers are listed next.
>>> df
                                   molecule  assigned_category
0  Cc1cc(C)nc(NS(=O)(=O)c2ccc(Nc3ccc4c5c(n(CCCN(C)C)c(=O)c4c3)-c3ccccc3C5=O)cc2)n1              false
1                 COc1ccc(OCC(=O)OC(C)C)cc1              false

API: query returns whether the molecule falls strictly under 70% in growth. Query: COc1ccc(Nc2nc(SCC(C)C)nc(-c3ccc(F)cc3)c2C#N)cc1
false

API: query returns whether the molecule falls strictly under 70% in growth. Query: COc1cc(NC(=O)COc2cc(C)nc3ccc(OC)cc23)cc(OC)c1
false

API: query returns whether the molecule falls strictly under 70% in growth. Query: O=C1C(=O)c2c(nc3ccc(C(F)(F)F)cn23)-c2ccccc21
true
